- assay_system: FABP1 (Mus musculus, UniProt P12710)
- Sequence (P12710 whole entry): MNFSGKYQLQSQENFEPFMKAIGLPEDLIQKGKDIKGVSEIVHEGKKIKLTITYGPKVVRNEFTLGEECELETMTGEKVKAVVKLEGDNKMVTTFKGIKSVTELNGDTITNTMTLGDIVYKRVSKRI
pKd: −log10 of the molar value.
reported_metric: pKd

>>> value_observed("O=C(CCC/C=C\\C/C=C\\C/C=C\\C/C=C\\CCCCCNc1ccc([N+](=O)[O-])c2nonc12)NCCO")
6.15

----------
- assay_system: UniProt P22307
- Sequence (P22307 21-143 isoform P22307-2 limits assumed): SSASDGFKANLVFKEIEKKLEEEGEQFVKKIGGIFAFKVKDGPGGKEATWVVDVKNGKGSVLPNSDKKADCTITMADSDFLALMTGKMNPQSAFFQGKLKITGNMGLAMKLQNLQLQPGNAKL
Entries annotated with measured Ki
reported_metric: Ki (µM)

>>> value_observed("CC(=O)Nc1ccc(Nc2nc(-c3ccc(Cl)c(Cl)c3)cs2)cc1")
0.68
>>> value_observed("CCc1c(-c2ccccc2)c(-c2ccccc2)nn1-c1ccccc1-c1cccc(OCC(=O)O)c1")
5.5
